System: Culex pipiens molestus
PROCEDURE SUMMARY: Insecticidal activity against Culex pipiens molestus assessed as mortality at 5 ppm
Format: functional
A collection of compounds and their measured mortality at 5 ppm

COMPOUND: CN(C)CC1CSSC1.O=C(O)C(=O)O
mortality at 5 ppm: 100%

COMPOUND: CN(C)CC1(C)CSSC1.O=C(O)C(=O)O
mortality at 5 ppm: 100%

COMPOUND: CN(C)C1CSSC1.O=C(O)C(=O)O [NEREISTOXIN HYDROGEN OXALATE]
mortality at 5 ppm: 100%

COMPOUND: CC1CC(CN(C)C)SS1.O=C(O)C(=O)O (configuration not stated)
mortality at 5 ppm: 0%

COMPOUND: CN(C)C[C@H]1C[C@H](CN(C)C)SS1.O=C(O)C(=O)O (relative stereo)
mortality at 5 ppm: 0%

COMPOUND: CN(C)CC1CCCSS1.O=C(O)C(=O)O (configuration not stated)
mortality at 5 ppm: 0%

COMPOUND: CN(C)CCC1CSSC1.O=C(O)C(=O)O
mortality at 5 ppm: 95%

---

Test system: Culex pipiens molestus
PROCEDURE SUMMARY: Insecticidal activity against Culex pipiens molestus assessed as mortality at 5 ppm
Type: functional
Listing of recorded mortality at 5 ppm by entry.
OBSERVED PROPERTY: mortality at 5 ppm (%)

MOLECULE: CN(C)C[C@H]1C[C@@H](CN(C)C)SS1.O=C(O)C(=O)O
MEASUREMENT UNITS: %
DATA VALUE: 0
//
MOLECULE: CN(C)CCCCC1CSSC1.O=C(O)C(=O)O
MEASUREMENT UNITS: %
DATA VALUE: 75
//
MOLECULE: CC1CSSC1CN(C)C.O=C(O)C(=O)O (stereo not drawn)
MEASUREMENT UNITS: %
DATA VALUE: 0
//
MOLECULE: CN(C)CC1CCSS1.O=C(O)C(=O)O (stereo not drawn)
MEASUREMENT UNITS: %
DATA VALUE: 100
//
MOLECULE: CN(C)NC1CSSC1.O=C(O)C(=O)O
MEASUREMENT UNITS: %
DATA VALUE: 25
//
MOLECULE: CC(C)C1CSSC1
MEASUREMENT UNITS: %
DATA VALUE: 0
//
MOLECULE: CN(C)CCC1CCSS1.O=C(O)C(=O)O (stereo not drawn)
MEASUREMENT UNITS: %
DATA VALUE: 100
//
MOLECULE: CN(C)CC1CCC(CN(C)C)SS1.O=C(O)C(=O)O (stereo not drawn)
MEASUREMENT UNITS: %
DATA VALUE: 0
//
MOLECULE: CN1CCCCC1C1CSSC1.O=C(O)C(=O)O (stereo not drawn)
MEASUREMENT UNITS: %
DATA VALUE: 95
//
MOLECULE: O=C(O)C(=O)O.O=[N+]([O-])c1cccc2c1SSC2
MEASUREMENT UNITS: %
DATA VALUE: 95
//
MOLECULE: O=C(O)C(=O)O.c1ccc(C2CSSC2)nc1
MEASUREMENT UNITS: %
DATA VALUE: 100
//
MOLECULE: CN(C)N(C)C1CSSC1.O=C(O)C(=O)O
MEASUREMENT UNITS: %
DATA VALUE: 100
//
MOLECULE: CN(C)CCCC1CSSC1.O=C(O)C(=O)O
MEASUREMENT UNITS: %
DATA VALUE: 40
